- Tested on: HCC-2998 colon
- test name: NCI tumour cell line growth inhibition, 48 h
Please go through the items and note down their TGI.

Input line: Using the record for Cn1c(N2CCCC2)c(C=O)c(=O)n(C)c1=O , state its measured TGI.
Output line: > 100 µM

Input line: Using the record for O=c1ccc2ccccc2o1 , state its measured TGI.
Output line: > 100 µM

Input line: Using the record for CC1=C(C(=O)OCCO[N+](=O)[O-])C(c2ccccc2C(F)(F)F)C(C(=O)OC(C)C)=C(C)N1 (stereo not drawn) , state its measured TGI.
Output line: > 100 µM

Input line: Using the record for Cc1cccc2sc(NC(=O)c3cc([N+](=O)[O-])ccc3Cl)nc12 , state its measured TGI.
Output line: 40.2 µM

Input line: Using the record for Cc1cc(Cc2cc(C)c(NC(=O)C(=O)C3C(=O)NC(=S)NC3=O)c(C(C)C)c2)cc(C(C)C)c1NC(=O)C(=O)C1C(=O)NC(=S)NC1=O , state its measured TGI.
Output line: > 100 µM

Input line: Using the record for CN1N=C2c3ccccc3CC[C@H]2C1c1ccccc1 (stereo partly drawn) , state its measured TGI.
Output line: > 100 µM

Input line: Using the record for NC(=O)N/N=C(\Cc1nc2ccc(C(=O)c3ccccc3)cc2[nH]c1=O)C(=O)Nc1ccc(Br)cc1 , state its measured TGI.
Output line: > 100 µM

Input line: Using the record for COc1cccc(NCC(=O)Nn2c(-c3ccccc3)nc3ccccc3c2=O)c1 , state its measured TGI.
Output line: > 100 µM

Input line: Using the record for OC(c1cccs1)c1cc2ccccc2s1 (stereo not drawn) , state its measured TGI.
Output line: > 10 µM

Input line: Using the record for CCC(=O)OCc1ccc2oc(=O)c(C(=O)Oc3cncc(Cl)c3)cc2c1 , state its measured TGI.
Output line: > 100 µM

Input line: Using the record for COc1ccc(/C=C2\CN(C)CC3=C2OC(N)=C(C#N)C3c2ccc(OC)cc2)cc1 (stereo not drawn) , state its measured TGI.
Output line: > 90.5 µM

Input line: Using the record for Cc1cc(=O)oc2cc(OC(=O)Nc3ccc(Cl)c(Cl)c3)ccc12 , state its measured TGI.
Output line: 41 µM

Input line: Using the record for Nc1nc2ccc([C@@H]3Nc4ccc5[nH]ncc5c4[C@H]4[C@H]5CCC(C5)[C@H]43)cc2s1 , state its measured TGI.
Output line: 3.76 µM

----------
- Tested on: NCI-H460 lung
- test name: NCI tumour cell line growth inhibition, 48 h
quantity: TGI

Input line: Using the record for OCCCSc1ccccc1SCCCO , state its measured TGI.
Output line: > 100 µM

Input line: Using the record for O=C1c2ccccc2S(=O)(=O)N1CSC(=S)N1CCCC1 , state its measured TGI.
Output line: > 100 µM

Input line: Using the record for Cn1c(C(C#N)c2cc(Cl)ncn2)nc2ccccc21 (configuration not stated) , state its measured TGI.
Output line: > 100 µM

Input line: Using the record for CCOC(=O)/C=C1\SC(=Nc2ccc(C#N)cc2)N(CCN2C(=O)/C(=C/C(=O)OCC)SC2=Nc2ccc(C#N)cc2)C1=O , state its measured TGI.
Output line: 7.35 µM

Input line: Using the record for O=C(O)Cc1ccc(N2N=C(c3ccccc3)CC2=O)cc1 , state its measured TGI.
Output line: > 100 µM

Input line: Using the record for O=[N+]([O-])c1ccc(/C=C/c2ccc(N=Nc3ccc(/C=C/c4ccc([N+](=O)[O-])cc4S(=O)(=O)O)c(S(=O)(=O)O)c3)cc2S(=O)(=O)O)c(S(=O)(=O)O)c1 , state its measured TGI.
Output line: > 100 µM

Input line: Using the record for O=C(CC/C(C/C(=N/O)c1ccc(F)cc1)=N/O)N(Cc1ccccc1)Cc1ccccc1 , state its measured TGI.
Output line: > 100 µM

Input line: Using the record for Cn1cc2c(n1)c(N/N=C/c1ccccc1)nn1nnnc21 , state its measured TGI.
Output line: > 100 µM

Input line: Using the record for CC1=C/C(=N/N2C(=O)/C(=C/c3ccc(Cl)cc3)N=C2c2ccccc2)CC(C)(C)C1 , state its measured TGI.
Output line: > 100 µM

Input line: Using the record for Cc1nc2c(nc1C)-c1c(c3c(n1Cc1ccccc1)C(=O)CCC3)C(=O)C2=O , state its measured TGI.
Output line: > 100 µM

Input line: Using the record for CC1=C(C(=O)Nc2ccccc2C)C(c2ccc([N+](=O)[O-])cc2)C(C(=O)Nc2ccccc2C)=C(C)N1 , state its measured TGI.
Output line: > 100 µM

Input line: Using the record for COC(=O)[C@@H]1c2cc3c(c(O)c2[C@@H](OC)C[C@@]1(C)O)C(=O)c1c(O)cc2c(c1C3=O)OC1O[C@@]2(C)[C@H](O)[C@@H](N(C)C)[C@@H]1O , state its measured TGI.
Output line: 0.488 µM

Input line: Using the record for C[C@@]12CC[C@H]3[C@@H]4CCC(=O)N[C@@]4(C)CC[C@@H]3[C@@]1(C)CC[C@H](OC(=O)Cc1ccc(N(CCCl)CCCl)cc1)C2 , state its measured TGI.
Output line: 28.2 µM

Input line: Using the record for C/C=C(\C)C(=O)O[C@@H]1C(O)[C@H]2OC(COC(=O)CCC(=O)CCCCCC[C@H](CCCCC)O[C@@H]3OC(C)[C@H](OC(C)=O)C(O)[C@H]3O2)[C@H]1OC(=O)/C=C/c1ccccc1 (some centres not stated) , state its measured TGI.
Output line: > 60.9 µM

Input line: Using the record for Cc1cc(S(=O)(=O)Nc2nc3ccsc3c(=O)n2Cc2ccco2)c(S)cc1Cl , state its measured TGI.
Output line: > 100 µM

Input line: Using the record for CCSc1nc2sc(C)c(C)c2c(=O)n1-c1ccc(C(=O)O)cc1 , state its measured TGI.
Output line: > 100 µM

Input line: Using the record for CC12O[C@H](c3ccccc3)[C@H](c3ccccc3)N1C(=O)C1(C(=O)OCc3ccccc3)CC12 (some centres not stated) , state its measured TGI.
Output line: > 100 µM

----------
- Tested on: DU-145 prostate
- test name: NCI tumour cell line growth inhibition, 48 h
Please go through the items and note down their TGI.
State just the number; it will be interpreted in µM.

Input line: # assay system DU-145 prostate: give TGI of Nc1nc2ccc([C@@H]3Nc4ccc5[nH]ncc5c4[C@H]4[C@H]5CCC(C5)[C@H]43)cc2s1
Output line: 5.78

Input line: # assay system DU-145 prostate: give TGI of Nc1nc2c(c3ncccc13)C(c1cccc(Cl)c1)Cc1ncccc1-2 (centres undefined)
Output line: 24.9

Input line: # assay system DU-145 prostate: give TGI of COc1ccc(C2NCCc3c2[nH]c2ccccc32)cc1CN1CCN(c2ccc(F)cc2)CC1 (centres undefined)
Output line: 7.81

Input line: # assay system DU-145 prostate: give TGI of COC(=O)C1OC(O[C@H]2CC[C@]3(C)[C@H]4CC=C5[C@@H]6CC(C)(C)CC[C@]6(C(=O)OC)[C@H](O)C[C@@]5(C)[C@]4(C)CC[C@H]3C2(C)C)C(O)C(O)C1O (some centres undefined)
Output line: 21.6

----------
- Test system: MOLT-4 leukemia
- test name: NCI tumour cell line growth inhibition, 48 h
quantity: TGI

Input line: Using the record for COc1ccc(/C(Cl)=C(\C=O)c2ccc(F)cc2)cc1 , state its measured TGI.
Output line: 50.9 µM

Input line: Using the record for COC1(OC)N=C(N)C2(C#N)C(C)CC(=O)N(N(C)C)C12C#N (stereo not given) , state its measured TGI.
Output line: > 100 µM

Input line: Using the record for Cc1ccc(S(=O)(=O)CNC(=S)CCCC(=S)NCS(=O)(=O)c2ccc(C)cc2)cc1 , state its measured TGI.
Output line: > 100 µM

Input line: Using the record for C/C=C(/C)C(=O)O[C@@H]1c2c(C)coc2C[C@H]2CC[C@H](O)[C@H](C)[C@]21C , state its measured TGI.
Output line: > 100 µM

Input line: Using the record for COc1ccc(/C=C(/C(=O)N2CCCC2)c2cc(OC)c(OC)c(OC)c2)cc1N , state its measured TGI.
Output line: > 100 µM

Input line: Using the record for Cc1cc2c(cc1O)CC[C@@H]1[C@@H]2CC[C@]2(C)[C@@H](O)CC[C@@H]12 , state its measured TGI.
Output line: 17.7 µM

Input line: Using the record for CCCCCCOc1ccc(NC2=C(Cl)C(=O)c3cccnc3C2=O)cc1 , state its measured TGI.
Output line: > 10 µM

Input line: Using the record for COc1cc2c3c(n(CCCN4CCN(C)CC4)c(=O)c2cc1OC)-c1cc2c(cc1C3=O)OCO2 , state its measured TGI.
Output line: 0.0353 µM

Input line: Using the record for O=C(CC/C(C/C(=N/O)c1ccc(F)cc1)=N/O)N(Cc1ccccc1)Cc1ccccc1 , state its measured TGI.
Output line: > 100 µM

Input line: Using the record for O=c1c2cc(Br)ccc2oc2nc3n(c(=O)c12)CCCS3 , state its measured TGI.
Output line: > 100 µM
